Target: phosphorylation levels of ERK1/2 in AsPC-1 (homozygous KRAS-G12D) cells (Homo sapiens, UniProt P01116, G12D)
Sequence (P01116 1-186 G12D): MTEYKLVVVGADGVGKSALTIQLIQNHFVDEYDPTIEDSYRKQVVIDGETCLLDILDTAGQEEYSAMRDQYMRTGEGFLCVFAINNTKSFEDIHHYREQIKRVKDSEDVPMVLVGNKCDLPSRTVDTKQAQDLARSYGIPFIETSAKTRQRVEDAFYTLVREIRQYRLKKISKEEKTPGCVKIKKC
Experiment: Cellular phospho-ERK assay in AsPC-1 cells (Alpha Screen), assay medium without fetal bovine serum;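 also: signal taken as phospho-ERK over total ERK per well, both detected in one multiplex bead assay, EC50 from four-parameter logistic fit of dose-response curves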
Conditions: phospho-ERK AlphaScreen, 18 h
*1 amine or outer side, *2 acyl side, *3 side chain or, on linkers, in order; H or OH if unused. Where a SMILES comes first, the peptide text is derived from it. Bridges are numbered along the chain shown (N, C = ends). [ ]: non-standard residue; d: D form. The star is where a group is joined. Ala(pyrimidin-5-yl) = N[C@@H](Cc1cncnc1)C(=O)O; Phe(4-CH2NH2) = NCc1ccc(C[C@H](N)C(=O)O)cc1; Ethyl(2-pyrrolidin-1-yl) = C1CCN(CC*)C1; 1Nal = N[C@@H](Cc1cccc2ccccc12)C(=O)O; Phe(2-F) = N[C@@H](Cc1ccccc1F)C(=O)O; X31 = O=C([C@H](CCC1CC1)N[*:1])[*:2]; X1 = O=C(C12CC(CN[*:1])(C1)C2)[*:2]; Ala(cPr) = N[C@@H](CC1CC1)C(=O)O; NMeF = CN[C@@H](Cc1ccccc1)C(=O)O; PhLac = O=C(O)[C@@H](O)Cc1ccccc1; d(αMeC) = C[C@@](N)(CS)C(=O)O; Ahp(2) = CCCCC[C@H](N)C(=O)O; Cba = N[C@@H](CC1CCC1)C(=O)O; αMeC = C[C@](N)(CS)C(=O)O; NMeA = CN[C@@H](C)C(=O)O; Nle = CCCC[C@H](N)C(=O)O
endpointName: EC50

>  <molecule>
CCCC[C@@H]1NC(=O)[C@H](Cc2ccc(CN)cc2)NC(=O)[C@H](CCCNC(=N)N)NC(=O)[C@H](Cc2cccc3ccccc23)NC(=O)CSC[C@](C)(C(=O)O)NC(=O)[C@H](Cc2ccccc2)N(C)C(=O)[C@H](CCCC)NC(=O)[C@H](Cc2ccc(O)cc2)NC1=O [compound 144] ({CH2CO}-[1Nal]R[Phe(4-CH2NH2)][Nle]Y[Nle][NMeF][d(αMeC)]-OH; thioether N-8)

>  <measured>
> 50.8 µM

$$$$
>  <molecule>
C[C@H]1C(=O)N[C@@H](Cc2cncnc2)C(=O)N[C@@H](CC2CC2)C(=O)N[C@@H](Cc2ccccc2F)C(=O)N[C@@H](CCC2CC2)C(=O)N(C)[C@@H](Cc2ccccc2)C(=O)NCC23CC(C2)(C3)C(=O)O[C@@H](Cc2ccccc2)C(=O)N1C [compound 114] (cyclo([Ala(cPr)][Phe(2-F)][X31][NMeF][X1][PhLac][NMeA][Ala(pyrimidin-5-yl)]))

>  <measured>
0.615 µM

$$$$
>  <molecule>
CCCCC[C@@H]1NC(=O)[C@H](Cc2ccc(OC)cc2)NC(=O)[C@H](CC2CCC2)NC(=O)[C@H](Cc2ccc(OCCN3CCCC3)cc2)NC(=O)[C@H](CCCNC(=N)N)NC(=O)[C@H](Cc2ccccc2)NC(=O)CSC[C@@](C)(C(N)=O)NC(=O)[C@H](Cc2ccccc2)N(C)C1=O [compound 383] ({CH2CO}-FRY(Ethyl(2-pyrrolidin-1-yl))[Cba]Y(Me)[Ahp(2)][NMeF][αMeC]-NH2; thioether N-8)

>  <measured>
> 50.8 µM

$$$$
